Would you kindly list pIC50 for each of these compounds?
system: recombinant human MGAT2 (Homo sapiens (Human), UniProt Q3SYC2)
Sequence (Q3SYC2 whole entry): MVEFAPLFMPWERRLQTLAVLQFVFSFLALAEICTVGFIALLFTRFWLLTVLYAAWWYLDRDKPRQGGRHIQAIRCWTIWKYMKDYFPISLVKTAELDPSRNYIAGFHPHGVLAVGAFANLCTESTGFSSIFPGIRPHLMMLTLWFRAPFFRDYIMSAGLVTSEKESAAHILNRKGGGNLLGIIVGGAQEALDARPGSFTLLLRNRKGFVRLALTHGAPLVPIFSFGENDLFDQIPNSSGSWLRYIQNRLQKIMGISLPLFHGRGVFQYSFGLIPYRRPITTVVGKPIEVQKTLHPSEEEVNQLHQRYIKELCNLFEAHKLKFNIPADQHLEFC
protocol description: Measurement of human MGAT2 inhibitory activity
Type: biochemical
run conditions: read-out: IC50 (concentration exhibiting 50% enzyme inhibition), Table 53
Description: A full-length human MGAT2 gene to which a Flag-tag had been added at the N-terminal was inserted into pFastBac (from Invitrogen). A recombinant baculovirus was produced in accordance with the protocol for a Bac-to-Bac baculovirus expression system (produced by Invitrogen), and Sf-9 cells were infected therewith. The cells were collected and sonicated, and then the membrane fraction was collected through centrifugation. […]
Numbers only, as −log10 of the molar value.

- mol smiles: "Cc1ccc(-n2nc3c(c2NC(=O)C2(S(C)(=O)=O)CC2)C(=O)N[C@@]2(CCOc4cc(OCC(F)(F)F)ccc42)C3)nc1"
  system: "recombinant human MGAT2 (Homo sapiens (Human), UniProt Q3SYC2)"
  reported: 6.68

Could you report pIC50 for every entry in the following list?
1. O=C1N[C@]2(CCOc3cc(OCC(F)(F)F)ccc32)Cc2nn(CCCOC(F)(F)F)c(NC(=O)C3CS(=O)(=O)C3)c21
2. Cc1ccc(-n2nc3c(c2NC(=O)CS(C)(=O)=O)C(=O)N[C@@]2(CCc4cc(OC(C)C)ccc42)C3)nc1
3. Cc1cc(-n2nc3c(c2NC(=O)CS(C)(=O)=O)C(=O)N[C@@]2(CCc4cc(C5CC5)ccc42)C3)nn1C

8.56
8.11
8.35
